# target-desc: KRAS-G13D (Homo sapiens, UniProt P01116, G13D)
# Construct: N-terminal biotin-acceptor peptide […]
# Sequence (P01116 with tags, fused parts or gaps isoform P01116-2 G13D): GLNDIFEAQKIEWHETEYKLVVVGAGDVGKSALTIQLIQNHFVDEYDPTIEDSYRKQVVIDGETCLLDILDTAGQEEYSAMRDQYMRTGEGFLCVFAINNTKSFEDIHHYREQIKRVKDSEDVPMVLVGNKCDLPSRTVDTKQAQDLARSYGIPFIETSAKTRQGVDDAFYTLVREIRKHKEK
# protocol-text: SOS-catalyzed nucleotide exchange assay (Procedure A, TR-FRET)
# settings: 60 min preincubation, GTP, read-out: KRAS G13D GNE IC50
Please respond with reported IC50 for every item in the list.
Just the number in µM, nothing appended.

// compound `N#Cc1c(N)sc2c(F)ccc(-c3c(Cl)cc4c(N5CCOCC(F)(F)C5)nc(OC[C@@]56CCCN5C[C@H](F)C6)nc4c3F)c12` , assay KRAS-G13D (Homo sapiens, UniProt P01116, G13D), IC50 value: 0.0129

// returns IC50 for `CC1(NC[C@@]2(COc3nc(N4CCCOCC4)c4cc(Cl)c(-c5ccc(F)c6sc(N)c(C#N)c56)c(F)c4n3)CC2(F)F)CCC1` with KRAS-G13D (Homo sapiens, UniProt P01116, G13D); value = 0.255

Short answer on KRAS-G13D (Homo sapiens, UniProt P01116, G13D) for `CN(C)C[C@@]1(COc2nc(N3CCCOCC3)c3cc(Cl)c(-c4ccc(F)c5sc(N)c(C#N)c45)c(F)c3n2)CC1(F)F` , IC50: 0.0288

====

For each record, write down the corresponding IC50.
# target-desc: KRAS-G12D (Homo sapiens, UniProt P01116, G12D)
# Construct: N-terminal biotin-acceptor peptide […]
# Sequence (P01116 with tags, fused parts or gaps isoform P01116-2 G12D): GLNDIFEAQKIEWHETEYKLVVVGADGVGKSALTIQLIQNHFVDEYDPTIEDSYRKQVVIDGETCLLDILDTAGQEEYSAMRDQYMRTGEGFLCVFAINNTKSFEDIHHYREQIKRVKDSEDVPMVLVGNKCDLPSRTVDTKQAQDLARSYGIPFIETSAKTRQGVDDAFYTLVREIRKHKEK
# protocol-text: SOS-catalyzed nucleotide exchange assay (Procedure A, TR-FRET)
# settings: 60 min preincubation, SOS + GTP, read-out: KRAS G12D GNE IC50
Record the value in µM, omitting the unit from your answer.

Form field IC50, entry `Cc1cc(N)nc(-c2c(Cl)cc3c(N4CCCOCC4)nc(OC[C@@]45CCCN4C[C@H](F)C5)nc3c2F)c1C(F)(F)F` : 0.351

The molecule listed as `CC1(NC[C@@]2(COc3nc(N4CCCOCC4)c4cc(Cl)c(-c5ccc(F)c6sc(N)c(C#N)c56)c(F)c4n3)CC2(F)F)COC1` shows IC50 equal to 2.36

IC50 in this record for `C[C@H]1CCCCCN1c1nc(OC[C@@]23CCCN2C[C@H](F)C3)nc2c(F)c(-c3ccc(F)c4sc(N)c(C#N)c34)c(Cl)cc12` : 0.113

Please fill in: IC50 reported for `Cc1cc2[nH]ncc2c(-c2c(F)cc3c(N4CCCOCC4)nc(OC[C@@]45CCCN4C[C@H](F)C5)nc3c2F)c1C(F)(F)F` = 0.505

N#Cc1c(N)sc2c(F)ccc(-c3c(C(F)(F)F)cc4c(N5CC6COC(C6)C5)nc(OC[C@@]56CCCN5C[C@H](F)C6)nc4c3F)c12 (stereo partly shown) has a reported IC50 of 0.0237

Consider N#Cc1c(N)sc2c(F)ccc(-c3c(Cl)cc4c(N5CCOCC(F)C5)nc(OC[C@@]56CCCN5C[C@H](F)C6)nc4c3F)c12 (stereo partly shown) . Its measured IC50 is 0.00827

For reference, reported IC50 for `Cc1cc(N)nc(-c2c(Cl)cc3c(N4CCCCOCC4)nc(OC[C@@]45CCCN4C[C@H](F)C5)nc3c2F)c1C(F)(F)F` stands at 0.515

Data point: `N#Cc1c(N)sc2c(F)ccc(-c3c(Cl)cc4c(N5CCCOCC5)nc(OC[C@]5(CN6CCOCC6)CC5(F)F)nc4c3F)c12` ; IC50 = 2.54

Reported IC50 of `N#Cc1c(N)sc2c(F)ccc(-c3c(Cl)cc4c(N5CCOCC(F)(F)C5)nc(OC[C@@]56CCCN5C[C@H](F)C6)nc4c3F)c12` : 0.0342

// IC50 lookup, molecule = `CC1(NC[C@@]2(COc3nc(N4CCCOCC4)c4cc(Cl)c(-c5ccc(F)c6sc(N)c(C#N)c56)c(F)c4n3)CC2(F)F)CC1` , result: 4.98

Measured IC50 of N#Cc1c(N)sc2c(F)ccc(-c3c(Cl)cc4c(N5CCOCCC5C5CC5)nc(OC[C@@]56CCCN5C[C@H](F)C6)nc4c3F)c12 (stereo partly shown) : 0.188

The molecule listed as `Cc1cc(N)nc(-c2c(Cl)cc3c(N4CCCOCCC4)nc(OC[C@@]45CCCN4C[C@H](F)C5)nc3c2F)c1C(F)(F)F` has a reported IC50 of 0.125

Just so you know, measured IC50 for `CCNC[C@@]1(COc2nc(N3CCCOCC3)c3cc(Cl)c(-c4ccc(F)c5sc(N)c(C#N)c45)c(F)c3n2)CC1(F)F` came out at 0.206

Entry CC1COCCCN1c1nc(OC[C@@]23CCCN2C[C@H](F)C3)nc2c(F)c(-c3ccc(F)c4sc(N)c(C#N)c34)c(Cl)cc12 (stereo partly shown) , IC50 reported as 0.0152

Data point: CC1(F)COCCN(c2nc(OC[C@@]34CCCN3C[C@H](F)C4)nc3c(F)c(-c4ccc(F)c5sc(N)c(C#N)c45)c(Cl)cc23)C1 (stereo partly shown) ; IC50 = 0.0467

// IC50 value for N#Cc1c(N)sc2c(F)ccc(-c3c(Cl)cc4c(N5CCOCCC5C(F)(F)F)nc(OC[C@@]56CCCN5C[C@H](F)C6)nc4c3F)c12 (stereo partly shown) : 0.094

CC1CCN(c2nc(OC[C@@]34CCCN3C[C@H](F)C4)nc3c(F)c(-c4ccc(F)c5sc(N)c(C#N)c45)c(Cl)cc23)CCO1 (stereo partly shown) has a reported IC50 of 0.7

Entry CC1CN(c2nc(OC[C@@]34CCCN3C[C@H](F)C4)nc3c(F)c(-c4ccc(F)c5sc(N)c(C#N)c45)c(Cl)cc23)CCCO1 (stereo partly shown) , IC50 reported as 0.0244

The molecule listed as `C[C@@H]1CCCCCN1c1nc(OC[C@@]23CCCN2C[C@H](F)C3)nc2c(F)c(-c3ccc(F)c4sc(N)c(C#N)c34)c(Cl)cc12` has a reported IC50 of 0.00861

// IC50 value for `Cc1cc(N)nc(-c2c(Cl)cc3c(N4CCCSCC4)nc(OC[C@@]45CCCN4C[C@H](F)C5)nc3c2F)c1C(F)(F)F` : 0.273

Looking up N#Cc1c(N)sc2c(F)ccc(-c3c(C(F)(F)F)cc4c(N5CCC6(C5)CC6(F)F)nc(OC[C@@]56CCCN5C[C@H](F)C6)nc4c3F)c12 (stereo partly shown) , I found its IC50 recorded as 0.972

Just so you know, measured IC50 for `N#Cc1c(N)sc2c(F)ccc(-c3c(Cl)cc4c(N5CCCOCC5)nc(OC[C@@]56CCCN5C[C@H](F)C6)nc4c3F)c12` came out at 0.00762

====

Hi there, I'd appreciate the recorded log10 IC50 for every entry that follows.
# target-desc: KRAS-G12C (C51S/C80L/C118S) (Homo sapiens, UniProt P01116, C118S/C51S/C80L/G12C)
# Construct: N-terminal biotin-acceptor peptide […]
# Sequence (P01116 with tags, fused parts or gaps isoform P01116-2 G12C/C51S/C80L/C118S): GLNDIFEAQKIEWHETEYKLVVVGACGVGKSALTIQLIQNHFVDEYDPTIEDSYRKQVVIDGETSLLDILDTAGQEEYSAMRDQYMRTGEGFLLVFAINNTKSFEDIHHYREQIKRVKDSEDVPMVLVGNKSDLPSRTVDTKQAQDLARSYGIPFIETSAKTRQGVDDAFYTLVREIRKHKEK
# protocol-text: SOS-catalyzed nucleotide exchange assay (Procedure A, TR-FRET)
# settings: 60 min preincubation, SOS + GTP, read-out: KRAS G12C GNE IC50
Heads up, the numbers here are log10 of IC50 in nM units.

The reported value for C[C@H]1CCOCCN1c1nc(OC[C@@]23CCCN2C[C@H](F)C3)nc2c(F)c(-c3ccc(F)c4sc(N)c(C#N)c34)c(Cl)cc12 [Ex. 6] in terms of log10 IC50 is 0.96

Note to self: log10 IC50 recorded for `C[C@@H]1CCOCCN1c1nc(OC[C@@]23CCCN2C[C@H](F)C3)nc2c(F)c(-c3ccc(F)c4sc(N)c(C#N)c34)c(Cl)cc12` was 1.12

Memo: `CN(C)C[C@@]1(COc2nc(N3CCCOCC3)c3cc(Cl)c(-c4ccc(F)c5sc(N)c(C#N)c45)c(F)c3n2)CC1(F)F` , reported log10 IC50: 1.48

Briefly, log10 IC50 measured for `CC1(NC[C@@]2(COc3nc(N4CCCOCC4)c4cc(Cl)c(-c5ccc(F)c6sc(N)c(C#N)c56)c(F)c4n3)CC2(F)F)CCC1` : 1.89

// recorded log10 IC50 for `Cc1cc(N)nc(-c2c(Cl)cc3c(N4CCCOCCC4)nc(OC[C@@]45CCCN4C[C@H](F)C5)nc3c2F)c1C(F)(F)F` : 1.75

Measured log10 IC50 of N#Cc1c(N)sc2c(F)ccc(-c3c(C(F)(F)F)cc4c(N5CCCOCC5)nc(OC[C@@]56CCCN5C[C@H](F)C6)nc4c3F)c12 (single isomer, unassigned) : 0.74

CC1(F)COCCN(c2nc(OC[C@@]34CCCN3C[C@H](F)C4)nc3c(F)c(-c4ccc(F)c5sc(N)c(C#N)c45)c(Cl)cc23)C1 (some centres unmarked) has a reported log10 IC50 of 1.51

Recorded result, `N#Cc1c(N)sc2c(F)ccc(-c3c(Br)cc4c(N5C6COCC5C6)nc(OC[C@@]56CCCN5C[C@H](F)C6)nc4c3F)c12` , log10 IC50: 1.57

The reported value for `Cc1cc(N)nc(-c2c(Cl)cc3c(N4CCCCOCC4)nc(OC[C@@]45CCCN4C[C@H](F)C5)nc3c2F)c1C(F)(F)F` in terms of log10 IC50 is 1.80

Sure, the documented log10 IC50 for CC1COCCN(c2nc(OC[C@@]34CCCN3C[C@H](F)C4)nc3c(F)c(-c4ccc(F)c5sc(N)c(C#N)c45)c(Cl)cc23)C1 (some centres unmarked) is 1.32

GET /value?item= CC1CCN(c2nc(OC[C@@]34CCCN3C[C@H](F)C4)nc3c(F)c(-c4ccc(F)c5sc(N)c(C#N)c45)c(Cl)cc23)CCO1 (some centres unmarked) &field=log10 IC50 returns 1.67

Value of log10 IC50 reported for the compound C[C@H]1CCOCCN1c1nc(OC[C@@]23CCCN2C[C@H](F)C3)nc2c(F)c(-c3ccc(F)c4sc(N)c(C#N)c34)c(Cl)cc12 (single isomer, unassigned) [Ex. 19] is 0.78

Reported log10 IC50 of `N#Cc1c(N)sc2c(F)ccc(-c3c(Cl)cc4c(N5CCCOCC5)nc(OC[C@]5(CO)CC5(F)F)nc4c3F)c12` : 2.95

Record summary for `CC1(NC[C@@]2(COc3nc(N4CCCOCC4)c4cc(Cl)c(-c5ccc(F)c6sc(N)c(C#N)c56)c(F)c4n3)CC2(F)F)CC1` : reported log10 IC50 = 2.39

Note to self: log10 IC50 recorded for COCC1CCOCCN1c1nc(OC[C@@]23CCCN2C[C@H](F)C3)nc2c(F)c(-c3ccc(F)c4sc(N)c(C#N)c34)c(Cl)cc12 (some centres unmarked) was 1.17

Note to self: log10 IC50 recorded for `N#Cc1c(N)sc2c(F)ccc(-c3c(Cl)cc4c(N5CCCOCC5)nc(OC[C@@]56CCCN5C[C@H](F)C6)nc4c3F)c12` was 1.19

Item: `CC(C)NC[C@@]1(COc2nc(N3CCCOCC3)c3cc(Cl)c(-c4ccc(F)c5sc(N)c(C#N)c45)c(F)c3n2)CC1(F)F` | log10 IC50: 1.74

Just so you know, measured log10 IC50 for `C[C@H]1CCOCCN1c1nc(OC[C@]2(CN(C)C)CC2(F)F)nc2c(F)c(-c3ccc(F)c4sc(N)c(C#N)c34)ncc12` came out at 1.35

// sample `Cc1cc(N)nc(-c2c(Cl)cc3c(N4CCCOCC4)nc(OC[C@@]45CCCN4C[C@H](F)C5)nc3c2F)c1C(F)(F)F` , its log10 IC50 was 1.92

log10 IC50 for `CN1CCC[C@H]1COc1nc(N2CCCOCC2)c2cc(Br)c(-c3ccc(F)c4sc(N)c(C#N)c34)c(F)c2n1` is 1.48

Per the record, `N#Cc1c(N)sc2c(F)ccc(-c3c(Cl)cc4c(N5CCCOCC5)nc(OC[C@]5(CN6CCOCC6)CC5(F)F)nc4c3F)c12` has log10 IC50 of 3.07

log10 IC50 reported for this compound `N#Cc1c(N)sc2c(F)ccc(-c3ncc4c(N5CCCOCC5)nc(OC[C@@]56CCCN5C[C@H](F)C6)nc4c3F)c12` : 1.88

GET /value?item= `Cc1cc(N)nc(-c2c(F)cc3c(N4CC[C@@H]5[C@@H](C#N)[C@@H]5CC4)nc(OC[C@@]45CCCN4C[C@H](F)C5)nc3c2F)c1C(F)(F)F` &field=log10 IC50 returns 3.24

Entry N#Cc1c(N)sc2c(F)ccc(-c3c(Cl)cc4c(N5CCOCCC5C5CC5)nc(OC[C@@]56CCCN5C[C@H](F)C6)nc4c3F)c12 (some centres unmarked) — recorded log10 IC50 = 1.71

The recorded log10 IC50 for `C[C@H]1CCCCCN1c1nc(OC[C@@]23CCCN2C[C@H](F)C3)nc2c(F)c(-c3ccc(F)c4sc(N)c(C#N)c34)c(Cl)cc12` is 1.49

Entry `CC1(NC[C@@]2(COc3nc(N4CCCOCC4)c4cc(Cl)c(-c5ccc(F)c6sc(N)c(C#N)c56)c(F)c4n3)CC2(F)F)COC1` ; log10 IC50 = 2.59
